system: green peach aphid (Myzus persicae); test: Insecticidal test for green peach aphid, foliar spray on cabbage seedlings; conditions: 12.5 ppm, rundown assay, 3 days
VALUE_TYPE: % Control at ppm, against green peach aphid: 12.5

| COMPOUND | REPORTED_MEASUREMENT |
| --- | --- |
| CC(c1ccc(Cl)nc1)S(C)(=O)=N[N+](=O)[O-] (stereo not shown) | A (90-100) |
| N#CN=[S@@]1(=O)CCCC1Cc1ccc(Cl)nc1 (stereo partly shown) | A (90-100) |
| O=[N+]([O-])N=[S@@]1(=O)CCCC1Cc1ccc(Cl)nc1 (stereo partly shown) | A (90-100) |

Each recorded value in this set is attributed to patent US7795456B2.
